- SYSTEM: MglA–SspA complex (heterodimer) (Francisella tularensis, UniProt Q5NFG1+Q5NHJ6)
- Sequence (Q5NFG1 1-205): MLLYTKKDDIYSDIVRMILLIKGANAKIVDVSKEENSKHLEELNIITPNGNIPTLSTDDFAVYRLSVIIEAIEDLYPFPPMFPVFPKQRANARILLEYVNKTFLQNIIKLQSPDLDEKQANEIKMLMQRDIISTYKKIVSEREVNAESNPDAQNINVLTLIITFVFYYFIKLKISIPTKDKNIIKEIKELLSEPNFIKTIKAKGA
- Sequence (Q5NHJ6 1-210): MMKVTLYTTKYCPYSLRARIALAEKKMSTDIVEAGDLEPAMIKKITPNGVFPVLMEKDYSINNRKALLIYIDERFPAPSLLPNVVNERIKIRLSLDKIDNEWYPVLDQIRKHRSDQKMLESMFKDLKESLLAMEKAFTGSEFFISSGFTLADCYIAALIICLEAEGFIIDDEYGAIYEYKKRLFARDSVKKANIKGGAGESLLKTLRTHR
- TEST_DESCRIPTION: biochemical
MEASURE_NAME: Kd

Task: For the compound shown here, Nc1nc2c(ncn2[C@@H]2O[C@H](COP(=O)(O)OP(=O)(O)O)[C@@H](OP(=O)(O)OP(=O)(O)O)[C@H]2O)c(=O)[nH]1 , give the reported Kd.
Output: ~12 µM
